Source listed as PubChem BioAssay AID180.

Tested on: BDF1 mice, Adenocarcinoma 755 s.c., tumor weight T/C
Experiment: NCI In Vivo Anticancer Drug Screen. Data for tumor model Adenocarcinoma 755 (subcutaneous) in B6D2F1 (BDF1) mice
Conditions: endpoint: mean tumor weight; dose: 2.0 mg/kg/injection; schedule: Q01DX011 (ip); vehicle: saline; higher = larger tumour
Some molecules, each annotated with its measured T/C.
value.type: T/C

molecule	value.type	data.value
N#CSc1ncnc2nc[nH]c12	T/C	1 % of control
CCC1/C=C/C=C/CC(C)C(O)C(C)(O)C(=O)C(C)C(O)C(C)C(=O)C(C)C(O)C(C)/C=C/C(=O)OC2C(C)C(CC1)OC1(OC(CC(C)O)C(C)CC1=O)C2C (stereo not given) (tested in a mixture with another compound)	T/C	87 % of control
CC(=O)c1cccc(NC2C(N)C(NC(=O)N(C)C)(C(C)O)C(C)(O)C2(O)COC(=O)c2c(C)cccc2O)c1 (stereo not given)	T/C	24 % of control
C=CCSc1ncnc2c1ncn2C1OC(CO)C(O)C1O (stereo not given)	T/C	112 % of control
CCCC(=O)OCC1OC(n2cnc3c(=S)nc(N)[nH]c32)C(OC(=O)CCC)C1OC(=O)CCC (stereo not given)	T/C	18 % of control
